Biological target: human recombinant kinase full-length wildtype AKT1 (Homo sapiens)
Construct: Purified human recombinant kinase full-length wildtype AKT1 was expressed in insect cells
Sequence (P31749 whole entry): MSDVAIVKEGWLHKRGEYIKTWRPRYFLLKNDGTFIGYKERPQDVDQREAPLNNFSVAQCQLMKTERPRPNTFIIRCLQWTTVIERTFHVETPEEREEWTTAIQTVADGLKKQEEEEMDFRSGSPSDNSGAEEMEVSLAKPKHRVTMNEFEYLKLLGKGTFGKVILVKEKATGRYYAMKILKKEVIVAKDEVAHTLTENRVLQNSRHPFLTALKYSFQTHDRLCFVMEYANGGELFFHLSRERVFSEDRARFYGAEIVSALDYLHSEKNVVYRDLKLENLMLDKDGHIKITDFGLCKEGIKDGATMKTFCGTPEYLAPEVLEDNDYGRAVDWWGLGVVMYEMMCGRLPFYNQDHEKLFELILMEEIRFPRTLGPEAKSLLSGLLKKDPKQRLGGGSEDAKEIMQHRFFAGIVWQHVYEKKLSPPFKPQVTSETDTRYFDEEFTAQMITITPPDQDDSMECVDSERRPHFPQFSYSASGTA
Assay: AKT1 kinase assay (wildtype, TR-FRET, Lance)
Details: 0.6 nM wildtype AKT1, 50 nM Ulight-CREBtide, either 50 μM ATP or 2 mM ATP, 60 min at RT
pIC50: −log10 of the molar value.
readout.type: pIC50

Nc1ncccc1-c1nc2ccc(-c3ccccc3)nc2n1-c1ccc(NC(=O)C2CC3(CC(C(=O)O)C3)C2)nc1 (stereo not drawn) = > 4.70
CC1(c2ccc(-n3c(-c4cccnc4N)nc4ccc(-c5ccccc5)nc43)cc2)CN(C[C@H]2CC[C@H](C(=O)O)CC2)C1 = > 4.70

Next, consider the following molecule.
Param readout= pIC50; system= human recombinant kinase full-length wildtype AKT1 (Homo sapiens); entry= `CC(C)(N[C@@H]1CC[C@H](C(=O)O)C1)c1ccc(-n2c(-c3cccnc3N)nc3ccc(-c4ccccc4)nc32)cc1` ; returns value. > 4.70
